All figures here come from PubChem BioAssay (Tox21).

experiment: qHTS assay to identify small molecule agonists of H2AX - cell viability counter screen (AID 1224847); conditions: CHO-K1 viability, CellTiter-Glo luminescence, 3 h; series mostly up to 154 µM; note: nearly all actives have a fitted effect of over 30% in size
Records with an inconclusive call do not appear. Activity calls are given as the source filed them. Calls come from the whole dose curve.
Outcome codes: T = active, F = inactive

{"Molecule": "O=c1cc(-c2ccccc2)oc2ccc3ccccc3c12", "Class": "T"}
{"Molecule": "C=Cc1ccc(S(=O)(=O)O)cc1", "Class": "F"}
{"Molecule": "O=C1NCCN1CCO", "Class": "F"}
{"Molecule": "CCC(C)(C)OC", "Class": "F"}
{"Molecule": "C=CCc1ccccc1OCC(O)CNC(C)C (stereo not drawn)", "Class": "F"}
{"Molecule": "C[C@H]1c2cccc(O)c2C(O)=C2C(=O)[C@]3(O)C(O)=C(C(N)=O)C(=O)[C@@H](N(C)C)[C@@H]3[C@@H](O)[C@@H]21", "Class": "F"}
{"Molecule": "Nc1nnc(-c2ccc([N+](=O)[O-])o2)o1", "Class": "F"}
{"Molecule": "CC(CO)CO", "Class": "F"}
